- TESTED SYSTEM: melanocortin-4 receptor (human, UniProt P32245 1-332)
- Sequence (P32245 whole entry): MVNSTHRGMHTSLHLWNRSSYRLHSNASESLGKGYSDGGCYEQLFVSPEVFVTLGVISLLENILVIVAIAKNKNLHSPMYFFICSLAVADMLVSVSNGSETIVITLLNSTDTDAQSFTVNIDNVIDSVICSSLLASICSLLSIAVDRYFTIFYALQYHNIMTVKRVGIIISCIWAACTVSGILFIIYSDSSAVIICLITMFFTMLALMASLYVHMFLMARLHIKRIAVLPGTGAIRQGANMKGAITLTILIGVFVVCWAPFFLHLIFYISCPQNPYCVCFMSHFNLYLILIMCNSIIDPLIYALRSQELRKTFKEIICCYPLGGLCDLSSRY
- PROCEDURE SUMMARY: cell-based or functional assay
Bridge positions count the residues as written; N and C are the ends. Square brackets hold non-standard residues; d marks the D form. hCys = N[C@@H](CCS)C(=O)O
READOUT LABEL: cAMP Assay (EC-50) (nM)
Numbers only, in nM.

Quick request: cAMP Assay (EC-50) for each listed item, please.
1. Ac-RC[dA]N[dF]RWC-NH2 (disulfide 2-8; SMILES CC(=O)N[C@@H](CCCNC(=N)N)C(=O)N[C@H]1CSSC[C@@H](C(N)=O)NC(=O)[C@H](Cc2c[nH]c3ccccc23)NC(=O)[C@H](CCCNC(=N)N)NC(=O)[C@@H](Cc2ccccc2)NC(=O)[C@H](CC(N)=O)NC(=O)[C@@H](C)NC1=O) [Compound 9: Ac-Arg-cyclo[Cys-D-Ala-Asn-D-Phe-Arg-Trp-Cys]-NH2]
2. Ac-R[hCys][dA][dF]RWC-NH2 (disulfide 2-7; SMILES CC(=O)N[C@@H](CCCNC(=N)N)C(=O)N[C@H]1CCSSC[C@@H](C(N)=O)NC(=O)[C@H](Cc2c[nH]c3ccccc23)NC(=O)[C@H](CCCNC(=N)N)NC(=O)[C@@H](Cc2ccccc2)NC(=O)[C@@H](C)NC1=O) [Compound 16: Ac-Arg-cyclo[hCys-D-Ala-D-Phe-Arg-Trp-Cys]-NH2]
3. Ac-RC[dA][His(3-Me)][dF]RWC-NH2 (disulfide 2-8) [Compound 5: Ac-Arg-cyclo[Cys-D-Ala-His(3-Me)-D-Phe-Arg-Trp-Cys]-NH2]

Reply text:
3
7.5
1.15
